Documented pEC50 across a set of binders
Biological target: T1, human 5T4-His protein (human, UniProt Q13641 32-355)
T1 construct: also called recombinant 5T4 protein (human 5T4-his tag); human 5T4 protein; not shown: His tag
T1 sequence (looked up): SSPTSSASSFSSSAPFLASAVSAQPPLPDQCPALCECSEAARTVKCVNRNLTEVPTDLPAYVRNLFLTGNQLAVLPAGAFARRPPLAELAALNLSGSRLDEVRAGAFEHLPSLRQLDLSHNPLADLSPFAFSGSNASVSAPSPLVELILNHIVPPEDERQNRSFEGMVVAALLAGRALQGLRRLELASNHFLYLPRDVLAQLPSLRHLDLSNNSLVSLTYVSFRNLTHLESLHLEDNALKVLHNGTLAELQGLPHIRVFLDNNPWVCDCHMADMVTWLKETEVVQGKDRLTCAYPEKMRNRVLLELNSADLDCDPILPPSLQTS
Assay: ELISA, coated 5T4-His
pEC50: −log10 of the molar value.
Endpoint Label: pEC50

| Binder | Endpoint Label | Measured Result |
| --- | --- | --- |
| Hu286B4-20 (antibody, V domains shown, humanized) VH: EVQLQESGPGLVKPSDTLSLTCAVSGYSITNNYYWNWIRQPPGKGLEWMGYITYDGSNNYNPSLKNRITVSRDTSKNQFSLKLSSVTAVDTAVYYCTRGGGQLRFDYWGQGTTVTVSS VL: SIVMTQSPSSLSASVGDRVTITCKASQSVSNEVTWYQQKPGKSPKMLIYYASNRYTGVPDRFSGSGYGTDFTFTISSLQPEDIATYFCQQDYSSPWTFGGGTKVEIK | pEC50 | 9.38 |
| Hu286B4-12 (antibody, V domains shown, humanized) VH: EVQLQESGPGLVKPSDTLSLTCAVSGYSISNNYYWNWIRQPPGKGLEWMGYITYDGSNNYNPSLKNRITVSRDTSKNQFSLKLSSVTAVDTAVYYCARGGGQLRFDYWGQGTTVTVSS VL: DIQMTQSPSSLSASVGDRVTITCKASQSVSNEVTWYQQKPGKAPKMLIYYASNRYTGVPDRFSGSGSGTDFTFTISSLQPEDIATYYCQQDYSSPWTFGGGTKVEIK | pEC50 | 9.05 |
| Hu286B4-15 (antibody, V domains shown, humanized) VH: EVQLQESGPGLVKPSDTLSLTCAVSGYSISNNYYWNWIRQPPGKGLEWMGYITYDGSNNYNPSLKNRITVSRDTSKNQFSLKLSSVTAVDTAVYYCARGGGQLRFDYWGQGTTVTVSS VL: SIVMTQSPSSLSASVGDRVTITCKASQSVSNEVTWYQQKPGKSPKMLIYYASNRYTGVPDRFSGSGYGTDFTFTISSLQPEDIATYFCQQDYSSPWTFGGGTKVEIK | pEC50 | 9.60 |
| Hu286B4-2 (antibody, V domains shown, humanized) VH: EVQLQESGPGLVKPSDTLSLTCAVSGYSISNNYYWNWIRQPPGKGLEWIGYITYDGSNNYNPSLKNRVTMSRDTSKNQFSLKLSSVTAVDTAVYYCARGGGQLRFDYWGQGTTVTVSS VL: DIQMTQSPSSLSASVGDRVTITCKASQSVSNEVTWYQQKPGKAPKMLIYYASNRYTGVPDRFSGSGSGTDFTFTISSLQPEDIATYYCQQDYSSPWTFGGGTKVEIK | pEC50 | 8.87 |
| 286B4 chimeric antibody (antibody, V domains shown, chimeric mAb; also called 284B4-C) VH: DVQLHESGPGLVKPSQSLSLTCSVTGYSITNNYYWNWIRQFPGNNLEWMGYITYDGSNNYNPSLKNRISVTRDTSKNQFFLKLSSVTTEDTATYYCTRGGGQLRFDYWGQGTTLTVSS VL: SIVMTQTPKFLIVSAGDRVTITCKASQSVSNEVTWYQQKPGQSPKMLIYYASNRYTGVPDRFTGSGYGTDFTFTINTVQAEDLAIYFCQQDYSSPWTFGGGTKLEIK | pEC50 | 9.49 |
